# assayed.target: human Adrenergic, Beta 3 Receptor (Adrb3), ADRB3 (gene 155) (UniProt P13945)
# Sequence (P13945 whole entry, looked up): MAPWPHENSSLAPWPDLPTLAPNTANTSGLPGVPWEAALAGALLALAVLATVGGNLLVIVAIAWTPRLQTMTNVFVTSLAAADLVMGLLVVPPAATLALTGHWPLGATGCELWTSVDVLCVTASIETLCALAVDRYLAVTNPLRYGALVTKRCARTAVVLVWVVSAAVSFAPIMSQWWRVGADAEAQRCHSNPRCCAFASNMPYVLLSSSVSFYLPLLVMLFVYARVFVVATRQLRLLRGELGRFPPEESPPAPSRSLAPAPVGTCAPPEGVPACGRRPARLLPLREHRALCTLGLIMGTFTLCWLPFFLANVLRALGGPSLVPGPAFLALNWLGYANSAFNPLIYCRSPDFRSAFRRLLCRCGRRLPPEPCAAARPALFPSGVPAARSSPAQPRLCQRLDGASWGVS
# experiment.summary: NVS_GPCR_hAdrb3: NovaScreen (NVS) G Protein-Coupled Receptor Assay for human Adrenergic, Beta 3 Receptor (Adrb3) (AID 2283262)
Results filed as inconclusive are left out. Activity calls are given as the source filed them. How the source made its calls: active means hit-call score of the fitted dose curve at least 0.9, where 1 is the maximum; inconclusive means response in the unintended direction; inactive means score below 0.9.
Classes used: true (1) = active, false (0) = inactive

# molecule, discrete.label
rows = [
    ("CCCCCCCCCCCC[N+](C)(C)C", "true (1)"),
    ("CCCCOC(=O)CC(CC(=O)OCCCC)(OC(C)=O)C(=O)OCCCC", "false (0)"),
    ("CN(C)C(=O)C1(N2CCCCC2)CCN(CC[C@@]2(c3ccc(Cl)c(Cl)c3)CN(C(=O)c3ccccc3)CCO2)CC1", "true (1)"),
    ("CCOC(=O)O[C@H](C)OC(=O)c1ccc2c(c1)cc(C(=O)NC1CCN(C(C)C)CC1)n2Cc1cc(-c2ccc(Cl)s2)on1", "true (1)"),
    ("CCN(CC)C(=O)c1cc(S(=O)(=O)Cc2ccccc2)c(N2CCC(c3ccccc3)CC2)cc1N(CC)CCN(C)C", "false (0)"),
    ("CN(C)c1ccc(C(=C2C=CC(=[N+](C)C)C=C2)c2ccc(N(C)C)cc2)cc1", "true (1)"),
    ("Cc1occc1C(=O)Nc1ccc(C(=O)N2CCC(F)(F)/C(=C\\C(=O)N3CCC(N4CCCCC4)CC3)c3ccccc32)cc1", "false (0)"),
    ("CC(O)CC(C)(C)O (stereo not given)", "true (1)"),
    ("Cc1oc2c(NC(=O)c3c(Cl)cccc3Cl)cccc2c1C(C)(C)O", "false (0)"),
    ("CC/C(=C(/CC)c1ccc(O)cc1)c1ccc(O)cc1", "true (1)"),
]

---

# assayed.target: Cytochrome P450 3A4 (Homo sapiens)
# experiment.summary: NVS_ADME_hCYP3A4: NovaScreen (NVS) CYP450-related Enzyme Activity (ADME) Assay for human CYP3A4 (AID 2283110)
Results filed as inconclusive are left out. Active and inactive are the calls of the source. The calls were made as follows: active = hit-call score of the fitted dose curve at least 0.9, where 1 is the maximum; inconclusive = response in the unintended direction; inactive = score below 0.9.
Classes used: active, inactive

# smiles.structure, assayed.target, discrete.label
rows = [
    ("NCc1cccc(C2CCN(C(=O)c3ccc(C#Cc4ccccc4F)o3)CC2)c1", "Cytochrome P450 3A4 (Homo sapiens)", "active"),
    ("Cc1occc1C(=O)Nc1ccc(C(=O)N2CCC(F)(F)/C(=C\\C(=O)N3CCC(N4CCCCC4)CC3)c3ccccc32)cc1", "Cytochrome P450 3A4 (Homo sapiens)", "inactive"),
    ("CCN(Cc1cccnc1)C(=O)c1cccc(Cl)c1[C@]1(C)C(=O)N(Cc2ccc(OC)cc2OC)c2ccc(Cl)cc21", "Cytochrome P450 3A4 (Homo sapiens)", "active"),
    ("CCN(CC)C(=O)c1cc(S(=O)(=O)Cc2ccccc2)c(N2CCC(c3ccccc3)CC2)cc1N(CC)CCN(C)C", "Cytochrome P450 3A4 (Homo sapiens)", "active"),
    ("CN(C)C(=O)C1(N2CCCCC2)CCN(CC[C@@]2(c3ccc(Cl)c(Cl)c3)CN(C(=O)c3ccccc3)CCO2)CC1", "Cytochrome P450 3A4 (Homo sapiens)", "active"),
    ("CC[C@H](NC(=O)c1cc(F)ccc1NS(=O)(=O)c1cccc2cccnc12)c1ccccc1", "Cytochrome P450 3A4 (Homo sapiens)", "inactive"),
]

---

# assayed.target: Hypoxia-inducible factor 1-alpha (Homo sapiens)
# experiment.summary: ATG_HIF1a_CIS: Attagene CIS-FACTORIAL HepG2 Assay for human Hypoxia Inducible Factor 1 (HIF1A) (AID 2282951)
# test.conditions: HepG2 Attagene cis-factorial HIF1a reporter transcription; actives raise or lower the signal
The source made the active and inactive calls. The calls were made as follows: active = hit-call score of the fitted dose curve at least 0.9, where 1 is the maximum; inactive = score below 0.9.
Classes used: TRUE = active, FALSE = inactive

# compound, assayed.target, discrete.label
records = [
    ("c1ccc2n[nH]nc2c1", "Hypoxia-inducible factor 1-alpha (Homo sapiens)", "FALSE"),
    ("OC12N=C(c3ccccc3)SC1Cc1cc(Cl)ccc12 (configuration not stated)", "Hypoxia-inducible factor 1-alpha (Homo sapiens)", "FALSE"),
    ("c1ccc(C[n+]2cccc3ccccc32)cc1", "Hypoxia-inducible factor 1-alpha (Homo sapiens)", "FALSE"),
    ("COc1cccc([C@H](O)C2CCN(CCc3ccc(F)cc3)CC2)c1OC", "Hypoxia-inducible factor 1-alpha (Homo sapiens)", "TRUE"),
    ("C[C@]12CC[C@@H]3c4ccc(O)cc4CC[C@H]3[C@@H]1CCC2=O", "Hypoxia-inducible factor 1-alpha (Homo sapiens)", "FALSE"),
    ("O=C(O)Cn1c(=O)n(Cc2ccc(Br)cc2F)c(=O)c2ccc(Cl)cc21", "Hypoxia-inducible factor 1-alpha (Homo sapiens)", "FALSE"),
    ("COCC(C)OCC(C)OCC(C)O (configuration not stated)", "Hypoxia-inducible factor 1-alpha (Homo sapiens)", "FALSE"),
    ("CCCCCCCCCCCC[N+](C)(C)C", "Hypoxia-inducible factor 1-alpha (Homo sapiens)", "FALSE"),
    ("Oc1ccccc1", "Hypoxia-inducible factor 1-alpha (Homo sapiens)", "FALSE"),
    ("CCOC(=O)O[C@H](C)OC(=O)c1ccc2c(c1)cc(C(=O)NC1CCN(C(C)C)CC1)n2Cc1cc(-c2ccc(Cl)s2)on1", "Hypoxia-inducible factor 1-alpha (Homo sapiens)", "TRUE"),
    ("CN(C)c1ccc(C(=C2C=CC(=[N+](C)C)C=C2)c2ccc(N(C)C)cc2)cc1", "Hypoxia-inducible factor 1-alpha (Homo sapiens)", "FALSE"),
    ("O=CCCCC=O", "Hypoxia-inducible factor 1-alpha (Homo sapiens)", "FALSE"),
]

---

# assayed.target: Estrogen receptor beta (Homo sapiens) (UniProt Q92731)
# Sequence (Q92731 whole entry, looked up, the tested form may be a part): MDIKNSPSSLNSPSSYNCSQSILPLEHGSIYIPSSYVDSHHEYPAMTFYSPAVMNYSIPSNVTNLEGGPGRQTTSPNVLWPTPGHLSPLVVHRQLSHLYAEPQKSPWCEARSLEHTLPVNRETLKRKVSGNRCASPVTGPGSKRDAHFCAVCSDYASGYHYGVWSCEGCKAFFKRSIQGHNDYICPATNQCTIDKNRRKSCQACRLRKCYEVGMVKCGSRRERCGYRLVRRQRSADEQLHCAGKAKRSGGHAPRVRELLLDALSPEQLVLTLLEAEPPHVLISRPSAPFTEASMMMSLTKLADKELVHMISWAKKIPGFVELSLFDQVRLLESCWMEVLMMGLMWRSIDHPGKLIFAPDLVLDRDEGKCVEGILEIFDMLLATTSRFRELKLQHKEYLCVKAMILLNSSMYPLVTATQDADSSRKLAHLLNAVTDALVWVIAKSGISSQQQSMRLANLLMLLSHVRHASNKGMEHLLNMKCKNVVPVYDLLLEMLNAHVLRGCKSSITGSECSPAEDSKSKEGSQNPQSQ
# experiment.summary: OT_ER_ERbERb_1440: Odyssey Thera (OT) 24-hour HEK293T Protein-Complementation Assay for Estrogen Receptor-beta/-beta Homodimer (AID 2283380);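 further: fluorescence gain from ER beta LBD homodimer complementation read by laser scanning cytometry; scored as signal increase over DMSO baseline for both agonists and antagonists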
Activity calls are given as the source filed them. The calls were made as follows: active = hit-call score of the fitted dose curve at least 0.9, where 1 is the maximum; inconclusive = response in the unintended direction; inactive = score below 0.9.
Classes used: active, inactive

# molecule, discrete.label
rows = [
    ("O=C=NCCCCCCN=C=O", "inactive"),
    ("c1ccc(C[n+]2cccc3ccccc32)cc1", "inactive"),
    ("O=c1[nH]sc2ccccc12", "inactive"),
    ("Cc1c2ccccc2c(C)c2c1ccc1ccccc12", "inactive"),
    ("Oc1ccc2ccccc2c1", "active"),
    ("c1ccc2n[nH]nc2c1", "inactive"),
    ("COc1cc(C(=O)NC2CCN(C)CC2)ccc1Nc1ncc2c(n1)N(C1CCCC1)CC(F)(F)C(=O)N2C", "active"),
    ("CC(C)(O)c1ccc(CNC(=O)c2cccnc2Oc2ccc3nonc3c2)cc1", "inactive"),
    ("CCN(CC)C(=O)c1cc(S(=O)(=O)Cc2ccccc2)c(N2CCC(c3ccccc3)CC2)cc1N(CC)CCN(C)C", "inactive"),
    ("COCC(C)OCC(C)OCC(C)O (stereo not drawn)", "inactive"),
    ("Cc1cc(F)ccc1-c1cc(N2CC[C@@H](O)[C@H]2CO)ncc1N(C)C(=O)C(C)(C)c1cc(C(F)(F)F)cc(C(F)(F)F)c1", "inactive"),
    ("Cc1cc2c(cc1C(F)(F)F)N(C(=O)Nc1ccc(Oc3cccnc3C)nc1)CC2", "inactive"),
    ("COc1cccc([C@H](O)C2CCN(CCc3ccc(F)cc3)CC2)c1OC", "inactive"),
    ("O=C(O)c1ccccc1-n1cc(C(=O)O)c(=O)c2cc(Nc3c(F)cc(F)cc3Cl)c(Cl)cc21", "inactive"),
    ("CCCCCCCC[Si](OCC)(OCC)OCC", "inactive"),
    ("CCCCOC(=O)CC(CC(=O)OCCCC)(OC(C)=O)C(=O)OCCCC", "inactive"),
    ("CCN(Cc1cccc(S(=O)(=O)O)c1)c1ccc(C(=C2C=CC(=[N+](CC)Cc3cccc(S(=O)(=O)O)c3)C=C2)c2ccccc2S(=O)(=O)[O-])cc1", "inactive"),
    ("CCCCCc1ccc(N)cc1", "inactive"),
    ("NC(=O)c1nc(-c2cccc(-c3cc(F)ccc3OCC(F)(F)C(F)(F)F)c2)n[nH]1", "inactive"),
    ("CN1C(=O)CC[C@H]1c1cccnc1", "inactive"),
    ("CC(C)(C)c1cc(/C=C2\\SC(N)=NC2=O)cc(C(C)(C)C)c1O", "inactive"),
    ("CC[C@H](NC(=O)c1cc(F)ccc1NS(=O)(=O)c1cccc2cccnc12)c1ccccc1", "inactive"),
    ("O=C1CCC(C2CCCCC2)CC1", "inactive"),
]

---

# assayed.target: Androgen Receptor/SRC-1 Co-activator, AR (gene 367) (UniProt P10275)
# Sequence (P10275 whole entry, looked up): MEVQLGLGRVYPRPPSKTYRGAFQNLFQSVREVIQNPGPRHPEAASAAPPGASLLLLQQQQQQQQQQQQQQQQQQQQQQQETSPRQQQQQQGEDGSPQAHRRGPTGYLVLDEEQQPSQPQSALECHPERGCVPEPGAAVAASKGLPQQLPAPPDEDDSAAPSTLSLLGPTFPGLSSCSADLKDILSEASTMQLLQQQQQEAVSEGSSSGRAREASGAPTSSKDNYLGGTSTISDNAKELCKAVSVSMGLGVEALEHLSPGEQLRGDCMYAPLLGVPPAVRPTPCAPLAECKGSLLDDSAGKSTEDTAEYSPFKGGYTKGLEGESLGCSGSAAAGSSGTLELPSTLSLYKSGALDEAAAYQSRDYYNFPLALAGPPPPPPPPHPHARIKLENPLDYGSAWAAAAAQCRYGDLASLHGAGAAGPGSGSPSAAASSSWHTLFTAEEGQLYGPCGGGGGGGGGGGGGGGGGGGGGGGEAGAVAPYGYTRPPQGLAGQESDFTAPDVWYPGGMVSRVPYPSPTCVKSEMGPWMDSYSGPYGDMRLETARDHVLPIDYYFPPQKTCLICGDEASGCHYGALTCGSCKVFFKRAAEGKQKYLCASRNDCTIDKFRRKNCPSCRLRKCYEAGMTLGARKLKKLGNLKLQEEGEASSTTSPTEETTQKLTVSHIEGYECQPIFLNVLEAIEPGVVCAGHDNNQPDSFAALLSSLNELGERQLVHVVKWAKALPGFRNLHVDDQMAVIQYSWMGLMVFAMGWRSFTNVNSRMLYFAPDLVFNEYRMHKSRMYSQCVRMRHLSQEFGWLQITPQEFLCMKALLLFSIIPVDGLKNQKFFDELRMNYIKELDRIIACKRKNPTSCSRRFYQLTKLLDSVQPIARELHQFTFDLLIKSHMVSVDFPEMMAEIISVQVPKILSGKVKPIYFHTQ
# experiment.summary: OT_AR_ARSRC1_0960: Odyssey Thera (OT) 16-hour HEK293T Protein-Complementation Assay for Androgen Receptor/SRC-1 Co-activator (AID 2283353);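 further: actives raise the signal above DMSO so potency reflects increased AR and SRC-1 complex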
Activity calls are given as the source filed them. How the source made its calls: active means hit-call score of the fitted dose curve at least 0.9, where 1 is the maximum; inconclusive means response in the unintended direction; inactive means score below 0.9.
Classes used: active, inactive

# smiles.structure, discrete.label
rows = [
    ("OCCO", "inactive"),
    ("CCN(Cc1cccnc1)C(=O)c1cccc(Cl)c1[C@]1(C)C(=O)N(Cc2ccc(OC)cc2OC)c2ccc(Cl)cc21", "active"),
    ("O=C(O)Cn1c(=O)n(Cc2ccc(Br)cc2F)c(=O)c2ccc(Cl)cc21", "inactive"),
    ("NCc1cccc(C2CCN(C(=O)c3ccc(C#Cc4ccccc4F)o3)CC2)c1", "active"),
    ("NC(=O)c1nc(-c2cccc(-c3cc(F)ccc3OCC(F)(F)C(F)(F)F)c2)n[nH]1", "active"),
    ("Cc1occc1C(=O)Nc1ccc(C(=O)N2CCC(F)(F)/C(=C\\C(=O)N3CCC(N4CCCCC4)CC3)c3ccccc32)cc1", "active"),
    ("CCCCOC(=O)c1ccc(O)cc1", "inactive"),
    ("Oc1ccc2ccccc2c1", "inactive"),
    ("O=C(O)c1ccccc1C(=O)OCc1ccccc1", "inactive"),
    ("CN(C[C@@H](CC[N+]12CCC(C3CCCCC3)(CC1)CC2)c1ccc(Cl)c(Cl)c1)C(=O)c1cc(C(F)(F)F)cc(C(F)(F)F)c1", "active"),
    ("Cc1c2ccccc2c(C)c2c1ccc1ccccc12", "active"),
]
